- System: NG-108-15 Cells
- Type: cell-based
Readings of Onset Time for the listed compounds

Param item: C=C[C@H]1C[N@@]2CC[C@H]1C[C@H]2[C@H](O)c1ccnc2ccc(OC)cc12 ; param system: NG-108-15 Cells; output Onset Time: <60 s

Param item: C[N+](C)(C)CCOC(N)=O ; param system: NG-108-15 Cells; output Onset Time: <60 s

Param item: C=C(C=O)C[C@@H]1C[C@H](O)[C@]2(C)O[C@@H]3C[C@@H]4O[C@@H]5C[C@]6(C)O[C@]7(C)CC[C@@H]8O[C@@H]9C[C@]%10(C)O[C@@H]%11C(C)=CC(=O)O[C@H]%11C[C@H]%10O[C@H]9C[C@@H](C)[C@H]8O[C@H]7C[C@H]6O[C@H]5C/C=C\[C@H]4O[C@H]3C[C@H]2O1 ; param system: NG-108-15 Cells; output Onset Time: <60 s
